Record form. Attribute: cAMP EC50 (1.0% HSA). Fill in for each entry.
- assay target: T1, human GIP receptor (human, UniProt P48546 22-466)
- T1 sequence (looked up): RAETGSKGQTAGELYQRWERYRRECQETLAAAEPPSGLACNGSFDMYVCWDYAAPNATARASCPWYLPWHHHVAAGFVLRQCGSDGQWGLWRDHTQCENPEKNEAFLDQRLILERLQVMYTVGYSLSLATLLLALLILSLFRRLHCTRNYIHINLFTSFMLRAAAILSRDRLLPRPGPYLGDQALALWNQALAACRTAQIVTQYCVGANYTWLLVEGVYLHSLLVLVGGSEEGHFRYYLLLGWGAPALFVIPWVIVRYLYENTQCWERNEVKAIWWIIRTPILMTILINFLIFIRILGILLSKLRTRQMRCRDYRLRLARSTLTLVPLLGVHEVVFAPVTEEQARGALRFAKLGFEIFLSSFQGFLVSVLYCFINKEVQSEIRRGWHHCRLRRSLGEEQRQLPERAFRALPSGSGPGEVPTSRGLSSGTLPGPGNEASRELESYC
- procedure summary: cell-based or functional assay
*1 amine or outer side, *2 acyl side, *3 side chain or, on linkers, in order; H or OH if unused. Where no end group is shown, it is not given here. Side-chain parts run from the residue outwards. [ ]: non-standard residue; d: D form. The star is where a group is joined. Decanoyl(10-(4-HOOC-PhO)) = O=C(O)c1ccc(OCCCCCCCCCC(=O)*)cc1; αMePhe(2-F) = C[C@](N)(Cc1ccccc1F)C(=O)O; γGlu = O=C(O)[C@H](CCC(=O)[*:2])N[*:1]; αMeY = C[C@](N)(Cc1ccc(O)cc1)C(=O)O; αMeL = CC(C)C[C@](C)(N)C(=O)O; αMeS = C[C@](N)(CO)C(=O)O; Orn = NCCC[C@H](N)C(=O)O; AEEA = NCCOCCOCC(=O)O; Aib = CC(C)(N)C(=O)O
Answers are plain numbers, in nM.

YXEGTXTSDXSIXLDXIAQXEFIKXLIKGGPSSGAPPPS (Y-Aib-EGT-αMeF(2F)-TSD-hTyr-SI-αMeL-LD-Orn-IAQ-Aib-EFIK((2-[2-(2-Amino-ethoxy)-ethoxy]-acetyl)2-(γ-Glu)-CO-(CH2)12-CO2H)-αMeY-LIK((2-[2-(2-Amino-ethoxy)-ethoxy]-acetyl)2-(γ-Glu)-CO-(CH2)12-CO2H)GGPSSGAPPPS-NH2) [Example 270]
3.8
YXEGTXTSDXSIXLDXKAQXKFIXXLIEGGPSSGAPPPS (Y-Aib-EGT-αMeF(2F)-TSD-hTyr-SI-αMeL-LD-Orn-K((2-[2-(2-Amino-ethoxy)-ethoxy]-acetyl)2-(y-Glu)-(10-(4-carboxyphenoxy)decanoyl))AQ-Aib-K((2-[2-(2-Amino-ethoxy)-ethoxy]-acetyl)2-(γ-Glu)-(10-(4-carboxyphenoxy)decanoyl))FI-(D-Glu)-αMeY-LIEGGPSSGAPPPS-NH2) [Example 320]
0.338
YXEGTXTSDVXIXLDXKAQXKFIXXLIEGGPSSGAPPPS (Y-Aib-EGT-αMeF(2F)-TSDV-Aib-I-αMeL-LD-Orn-K((2-[2-(2-Amino-ethoxy)-ethoxy]-acetyl)2-(γ-Glu)-CO-(CH2)12-CO2H)AQ-Aib-K((2-[2-(2-Amino-ethoxy)-ethoxy]-acetyl)2-(γ-Glu)-CO-(CH2)12-CO2H)FI-(D-Glu)-αMeY-LIEGGPSSGAPPPS-NH2) [Example 318]
5.42
YXEGTXTSDXSIXLDXIAQXEFIXXLIKGGPSSGAPPPSK (Y-Aib-EGT-αMeF(2F)-TSD-4Pal-SI-αMeL-LD-Orn-IAQ-Aib-EFI-(D-Glu)-αMeY-LIK((2-[2-(2-Amino-ethoxy)-ethoxy]-acetyl)3-(γ-Glu)-CO-(CH2)12-CO2H)GGPSSGAPPPSK((2-[2-(2-Amino-ethoxy)-ethoxy]-acetyl)3-(γ-Glu)-CO-(CH2)12-CO2H)-NH2) [Example 229]
7.35
YXEGTXTSDXXIXLDXKAQXEFIXXLIKGGPSSGAPPPS (Y-Aib-EGT-αMeF(2F)-TSD-4Pal-Aib-I-αMeL-LD-Orn-K((2-[2-(2-Amino-ethoxy)-ethoxy]-acetyl)2-(γ-Glu)-(10-(4-carboxyphenoxy)decanoyl))AQ-Aib-EFI-(D-Glu)-αMeY-LIK((2-[2-(2-Amino-ethoxy)-ethoxy]-acetyl)2-(γ-Glu)-(10-(4-carboxyphenoxy)decanoyl))GGPSSGAPPPS-NH2) [Example 244]
0.983

Go through the items and report each one's cAMP EC50 (1.0% HSA).
1. Y[Aib]EGT[αMePhe(2-F)]TSDV[αMeS]I[αMeL]LD[Orn]IAQ[Aib]EFIK([AEEA-AEEA-γGlu-Decanoyl(10-(4-HOOC-PhO))])[αMeY]LIK([AEEA-AEEA-γGlu-Decanoyl(10-(4-HOOC-PhO))])GGPSSGAPPPS-NH2 [Example 309]
2. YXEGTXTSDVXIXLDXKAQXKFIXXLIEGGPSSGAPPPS (Y-Aib-EGT-αMeF(2F)-TSDV-Aib-I-αMeL-LD-Orn-K((2-[2-(2-Amino-ethoxy)-ethoxy]-acetyl)2-(γ-Glu)-(10-(4-carboxyphenoxy)decanoyl))AQ-Aib-K((2-[2-(2-Amino-ethoxy)-ethoxy]-acetyl)2-(γ-Glu)-(10-(4-carboxyphenoxy)decanoyl))FI-(D-Glu)-αMeY-LIEGGPSSGAPPPS-NH2) [Example 319]
3. YXEGTXTSDXSIXLDXKAQXEFIXXLIEGGPSSGAPPPSK (Y-Aib-EGT-αMeF(2F)-TSD-OMeY-SI-αMeL-LD-Orn-K((2-[2-(2-Amino-ethoxy)-ethoxy]-acetyl)2-(γ-Glu)-CO-(CH2)10-CH3)AQ-Aib-EFI-(D-Glu)-αMeY-LIEGGPSSGAPPPSK((2-[2-(2-Amino-ethoxy)-ethoxy]-acetyl)2-(γ-Glu)-CO-(CH2)10-CH3)-NH2) [Example 291]

1: 6.08; 2: 3.35; 3: 0.833
